procedureText: RPMI8226 myeloma cell viability, profiling panel, resazurin fluorescence, basal, 24 h, PK04 Diversity Set (AID 1180);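 note: RPMI8826 multiple myeloma cell line at 5000 cells per well; test concentration not given here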
appliedConditions: higher = more signal
Measured z-score of individual entries
readoutName: z-score

INSERT INTO assay_data (smi, readoutname, valueobserved) VALUES
  ('CC(C)CNC(=O)[C@@H]1c2ccccc2C(=O)N(CC23CC4CC(CC(C4)C2)C3)[C@H]1c1ccc(CO)cc1', 'z-score', 0.281),
  ('COC(=O)[C@@]1(Cc2ccccc2)[C@H]2c3cc(C(=O)N4CCCC4)n(Cc4ccc(C(F)(F)F)nc4)c3C[C@H]2CN1C(=O)c1ccccc1', 'z-score', -0.578),
  ('CO[C@H]1O[C@H](CO)[C@@H](OC(=O)Nc2ccc(C(F)(F)F)cc2)[C@H](OC(=O)Nc2ccccc2-c2ccccc2)[C@@H]1OC(=O)Nc1ccccc1-c1ccccc1', 'z-score', -0.94),
  ('Cc1ccc(S[C@]2(C(=O)NCC(F)(F)F)CC(=O)N(C3CCCCC3)[C@@H]2c2ccc(CO)cc2)cc1', 'z-score', 0.149),
  ('O=C1N(CCS(=O)(=O)c2ccccc2)c2ccccc2[C@@H]2OC(c3ccc(OCCCO)cc3)=N[C@]12CCS(=O)(=O)c1ccccc1', 'z-score', -0.63),
  ('CCC[C@@H]1C=C(C(=O)OCC)[C@H](c2ccccc2)N1S(=O)(=O)c1ccc(C)cc1', 'z-score', -1.89),
  ('O=C1c2ccccc2[C@](Cc2ccccc2I)(C(=O)O)[C@H](c2ccc(CO)cc2)N1Cc1ccccc1', 'z-score', -0.831),
  ('C=CC[C@]1(C(=O)NCCCOC)N=C(c2ccc(OCCCO)cc2)O[C@H]1c1ccccc1', 'z-score', 1.36);

----------
procedureText: small-molecule binders of probe aNOTCH3, primary screen, biochemical, small-molecule microarray, 635/667 nm fluorescence (AID 1120);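 note: probe is a biotin-tagged antibody raised against NOTCH3 rather than NOTCH3 protein; score merges spot fluorescence near 667 nm with spot signal to noise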
appliedConditions: higher = more signal
composite z-score below -0.03 gives n; composite z-score at or above it gives y.

INSERT INTO assay_data (compound, classname) VALUES
  ('COC(=O)[C@@]1(Cc2ccc(OC)cc2)[C@H]2c3cc(C(=O)N4CCCC4)n(CCc4ccc(OC)c(Br)c4)c3C[C@H]2CN1C(=O)c1ccccc1', 'y'),
  ('C=CCC(OC(C)=O)[C@@H]1[C@@H](N(Cc2ccc(-c3cccc(C(F)(F)F)c3)o2)C(=O)Cc2ccc(F)cc2)c2cc(OCCCO)ccc2N1C(=O)c1ccc2ccccc2n1 (stereo partly specified)', 'y'),
  ('COC(=O)[C@@]1(Cc2ccccc2)[C@@H]2[C@@H](CC(=O)[C@H]2CC(=O)C(=O)N(C)C)CN1C(=O)c1ccccc1', 'y'),
  ('CCOC(=O)C[C@H]1[C@H](OC(=O)c2ccc(C(=O)c3ccccc3)cc2)[C@@H](NC(=O)c2ccc3ccccc3c2)c2cc(OCCCO)ccc2N1C(=O)c1ccc2ccccc2n1', 'y'),
  ('C=CC[C@@]12N=C(c3ccc(OCCCO)cc3)O[C@@H]1c1ccccc1N(Cc1ccccc1)C2=O', 'y'),
  ('COC(=O)[C@@]1(Cc2ccc(F)cc2)[C@H]2c3cc(C(=O)N(C)C)n(CCN4CCOCC4)c3C[C@H]2CN1C(=O)c1ccccc1', 'y'),
  ('COC(=O)C1=CC(CCCO)=CC(c2ccc(CN3CCCC3)cc2)N(Cc2sc3ccccc3c2Cl)C=C1C(=O)OC (stereo unspecified)', 'y'),
  ('O=C1c2ccccc2[C@@]2(Cc3ccccc3N(Cc3ccccc3)C2=O)[C@H](c2ccc(CO)cc2)N1Cc1ccccc1', 'n'),
  ('CCC[C@@H]1C=C(C(=O)OCC)[C@H](c2ccccc2)N1S(=O)(=O)c1ccc(C)cc1', 'y'),
  ('O=C1OCCC=C[C@H]2OC34C=CCN(CCN5CCOCC5)C(=O)[C@H]3N(CCCO)C(=O)[C@@H]4C12 (stereo partly specified)', 'n'),
  ('COc1cc(OC)c(C(O)C2C=CC3C(=O)N(c4ccccc4)C(=O)C3N2Nc2ccccc2F)cc1Br (stereo unspecified)', 'y'),
  ('CC(C)CNC(=O)[C@@H]1c2ccccc2C(=O)N(CC23CC4CC(CC(C4)C2)C3)[C@H]1c1ccc(CO)cc1', 'y'),
  ('COCCOC(=O)N1C(=O)[C@@]2(c3cc(C#CC4(O)CCCCCC4)ccc31)[C@H](C(=O)NC[C@H](O)c1ccccc1)[C@H]1C(=O)O[C@H](c3ccccc3)[C@H](c3ccccc3)N1[C@@H]2c1ccc(O)cc1', 'n'),
  ('CO[C@H]1O[C@H](CO)[C@@H](OC(=O)Nc2ccc(C(F)(F)F)cc2)[C@H](OC(=O)Nc2ccccc2-c2ccccc2)[C@H]1OC(=O)Nc1ccccc1-c1ccccc1', 'y'),
  ('C=CCNC(=O)[C@H]1[C@@H]2C(=O)O[C@@H](c3ccccc3)[C@@H](c3ccccc3)N2[C@@H](c2ccc(O)cc2)[C@]12C(=O)Nc1ccc(C#CC3=CCCCC3)cc12', 'n'),
  ('CN(C)CCCCNC(=O)[C@H]1C[C@H]2C(=O)N[C@@H](Cc3ccccc3)C(=O)N2[C@H]1c1cccc(OCCO)c1', 'n'),
  ('CC(C)(C)N1CC=CC23O[C@@H]4/C=C\CCCOC(=O)C4[C@H]2C(=O)N(CCCCCCO)[C@@H]3C1=O (stereo partly specified)', 'n'),
  ('C=CCNC(=O)[C@H]1[C@@H]2C(=O)O[C@@H](c3ccccc3)[C@@H](c3ccccc3)N2[C@@H](c2ccccc2OCCO)[C@]12C(=O)N(C(=O)OCCOC)c1ccccc12', 'n'),
  ('C=CCC(OC(C)=O)[C@@H]1[C@@H](N(Cc2cccc3ccccc23)C(=O)c2ccc(-c3ccccc3)cc2)c2cc(OCCCO)ccc2N1C(=O)c1ccc2ccccc2n1 (stereo partly specified)', 'y'),
  ('CN(C)CCCC[C@@H]1NC(=O)[C@H]2C[C@@H](C(=O)NCc3ccc(F)cc3)[C@@H](c3ccc(O)cc3)N2C1=O', 'n'),
  ('COCCOC(=O)N1C(=O)[C@@]2(c3ccccc31)[C@H](c1ccc(OCCO)cc1)N1[C@H](c3ccccc3)[C@H](c3ccccc3)OC(=O)[C@H]1[C@@H]2C(=O)N1CCN(c2ncccn2)CC1', 'y'),
  ('CN1C(=O)C2C=CC(C(O)c3ccc(-c4ccccc4)s3)N(Nc3ccccc3)C2C1=O (stereo unspecified)', 'y'),
  ('CCCCC(O)C1C=CC2C(=O)NC(=O)C2N1Nc1ccccn1 (stereo unspecified)', 'n'),
  ('O=C1O[C@@H](c2ccccc2)[C@@H](c2ccccc2)N2[C@@H](c3ccc(O)cc3)[C@]3(C(=O)Nc4ccc(C#CC5=CCCCC5)cc43)[C@@H](C(=O)N3CCCCCCC3)[C@H]12', 'y'),
  ('C=CCC(OC(C)=O)[C@@H]1[C@@H](N(Cc2cc3ccccc3o2)C(=O)Cc2ccc(OC)cc2)c2cc(OCCCO)ccc2N1C(=O)Cc1ccc(OC)cc1 (stereo partly specified)', 'n'),
  ('C=CCC(OC(C)=O)[C@@H]1[C@@H](N(Cc2cc3ccccc3o2)C(=O)c2ccc(-c3ccccc3)cc2)c2cc(OCCCO)ccc2N1C(=O)c1ccc2ccccc2n1 (stereo partly specified)', 'n');
